Recorded Plant response rating, Giant foxtail, one value per entry.
- System: giant foxtail
- assay name: Test B pre/postemergence giant foxtail
- Assay type: in vivo, Setaria faberii
- test conditions: Rate 250 g/ha, Postemergence; scale of 0 to 10 where 0 is no effect and 10 is complete control

compound	Plant response rating, Giant foxtail
CC(C)N(C(=O)n1oc(=O)n(CCCN(C)C)c1=O)c1ccc(F)cc1	0
CCOCn1c(=O)on(C(=O)N(c2ccccc2)C(C)C)c1=O	8
Cc1ccccc1-n1c(=O)on(C(=O)N(c2ccc(C(C)(C)C)cc2)C(C)C)c1=O	0
COCn1c(=O)on(C(=O)N(c2ccc(Cl)cc2)C(C)C)c1=O	9
CC(C)=CCn1c(=O)on(C(=O)N(c2ccc(F)cc2)C(C)C)c1=O	0
CC(C)N(C(=O)n1oc(=O)n(C2CCCCO2)c1=O)c1ccc(F)cc1 (stereo not shown)	0
CC(C)N(C(=O)n1oc(=O)n(CCC2OCCO2)c1=O)c1ccc(Cl)cc1	9
CC(=O)C(C)n1c(=O)on(C(=O)N(c2ccccc2)C(C)C)c1=O (stereo not shown)	7
Cc1cccc(C)c1-n1c(=O)on(C(=O)N(c2ccc(Cl)cc2Cl)C2CCC2)c1=O	0
CCOC(=O)C=C(Cn1c(=O)on(C(=O)N(c2ccc(F)cc2F)C(C)C)c1=O)OCC	4

###

- System: rape
- assay name: Test B pre/postemergence rape
- Assay type: in vivo, Brassica napus
- test conditions: Preemergence, Rate 250 g/ha; scale 0 (no effect) to 10 (complete control)
Recorded Rape plant response rating, one value per entry.

compound	Rape plant response rating
Cc1nc(C(C)n2c(=O)on(C(=O)N(c3ccccc3)C(C)C)c2=O)sc1C (stereo not shown)	0
COC(CCl)n1c(=O)on(C(=O)N(c2ccc(F)cc2F)C(C)C)c1=O (stereo not shown)	5
COCC(OC)n1c(=O)on(C(=O)N(c2ccc(Cl)cc2)C(C)C)c1=O (stereo not shown)	0
CCC(C)n1c(=O)on(C(=O)N(c2ccc(F)cc2)C(C)C)c1=O (stereo not shown)	7

###

- Test system: giant foxtail
- assay name: Test B pre/postemergence giant foxtail
- Format: in vivo, Setaria faberii
- test conditions: Preemergence, Rate 62 g/ha; scale of 0 to 10 where 0 is no effect and 10 is complete control
endpoint label: Plant response rating, Giant foxtail

molecule	endpoint label	reported measurement
CCc1nc(C)c(Cn2c(=O)on(C(=O)N(c3ccc(Cl)cc3)C(C)C)c2=O)s1	Plant response rating, Giant foxtail	3
CC(C)N(C(=O)n1oc(=O)n(CC2=NOCCC2)c1=O)c1ccc(Cl)cc1	Plant response rating, Giant foxtail	2
COC(CCl)n1c(=O)on(C(=O)N(c2ccc(Cl)cc2)C(C)C)c1=O (stereo not shown)	Plant response rating, Giant foxtail	9
CC(C)N(C(=O)n1oc(=O)n(CCC2OCCO2)c1=O)c1ccc(Cl)cc1	Plant response rating, Giant foxtail	9

###

Recorded Plant response rating, Crabgrass, one value per entry.
- System: crabgrass
- assay name: Test B pre/postemergence crabgrass
- Assay type: in vivo, Digitaria sanguinalis
- test conditions: Preemergence, Rate 250 g/ha; scale 0 to 10 (0 no effect, 10 complete control)

compound	Plant response rating, Crabgrass
CCn1ncc(Cn2c(=O)on(C(=O)N(c3ccc(F)cc3)C(C)C)c2=O)c1Cl	10
CCOP(=O)(OCC)C(C)n1c(=O)on(C(=O)N(c2ccc(Cl)cc2)C(C)C)c1=O (stereo not drawn)	3
CC(C)N(C(=O)n1oc(=O)n(CCC(=O)N(C)C)c1=O)c1ccccc1	8
CC(C)N(C(=O)n1oc(=O)n(CC(=O)C2CCC2)c1=O)c1ccccc1	7
CC(C)N(C(=O)n1oc(=O)n(C(CCl)CCl)c1=O)c1ccc(F)cc1	10
CC(C)N(C(=O)n1oc(=O)n(CC2CCCCO2)c1=O)c1ccc(F)cc1 (stereo not drawn)	9
COC(=O)C(c1ccccc1)n1c(=O)on(C(=O)N(c2ccc(F)cc2)C(C)C)c1=O (stereo not drawn)	6
CC(C)N(C(=O)n1oc(=O)n(CCCC#N)c1=O)c1ccc(F)cc1	9
CC(C)N(C(=O)n1oc(=O)n(C(C)C2CCC2)c1=O)c1ccc(Cl)cc1 (stereo not drawn)	10

###

- Tested on: blackgrass
- assay name: Test B pre/postemergence blackgrass
- Format: in vivo, Alopecurus myosuroides
- test conditions: Rate 500 g/ha, Postemergence; scale 0 to 10, 0 no effect, 10 complete control

molecule	tested system	Plant response rating, Blackgrass
CC(C)N(C(=O)n1oc(=O)n(-c2ccc3ccccc3c2)c1=O)c1ccc(F)cc1F	blackgrass	0
CC(C)N(C(=O)n1oc(=O)n(C2CC3CCC2C3)c1=O)c1ccc(F)cc1F (stereo not shown)	blackgrass	1
CC(C)C(C)n1c(=O)on(C(=O)N(c2ccc(F)cc2F)C(C)C)c1=O (stereo not shown)	blackgrass	7
CC(C)N(C(=O)n1oc(=O)n(C2CCC2)c1=O)c1ccc(Cl)cc1	blackgrass	6

###

Recorded Redroot pigweed plant response rating, one value per entry.
- Test system: pigweed
- assay name: Test B pre/postemergence pigweed
- Type: in vivo, Amaranthus retroflexus
- test conditions: Rate 500 g/ha, Postemergence; scale 0 to 10, 0 no effect, 10 complete control
endpoint label: Redroot pigweed plant response rating

compound	reported measurement
CC(C)N(C(=O)n1oc(=O)n(CC2(C)COC2)c1=O)c1ccc(F)cc1	0
CCn1c(=O)on(C(=O)N(c2ccc(Cl)cc2)C(C)C)c1=O	3
CC(C)N(C(=O)n1oc(=O)n(C(C)C(=O)c2ccccc2)c1=O)c1ccc(F)cc1 (centres unmarked)	6
Cc1nn(C)c(C)c1-n1c(=O)on(C(=O)N(c2ccccc2)C(C)C)c1=O	3
CC(C)N(C(=O)n1oc(=O)n(CC2CC2)c1=O)c1ccc(F)cc1	4

###

- System: soybean
- assay name: Test B pre/postemergence soybean
- Format: in vivo, Glycine max
- test conditions: Preemergence, Rate 250 g/ha
Recorded Soybean plant response rating (0 to 10 scale), one value per entry.
endpoint label: Soybean plant response rating (0 to 10 scale)

line notation	reported measurement
CCCCCn1c(=O)on(C(=O)N(c2ccc(Cl)cc2)C(C)C)c1=O	0
COC(=O)CCCn1c(=O)on(C(=O)N(c2ccccc2)C(C)C)c1=O	0
CCOCn1c(=O)on(C(=O)N(c2ccccc2)C(C)C)c1=O	3
CC(Cl)=CCn1c(=O)on(C(=O)N(c2ccccc2)C(C)C)c1=O	0

###

- System: soybean
- assay name: Test B pre/postemergence soybean
- Format: in vivo, Glycine max
- test conditions: Rate 250 g/ha; Postemergence
endpoint label: Plant response rating (0 to 10; 0 is no effect, 10 is complete control), Soybean

line notation	reported measurement
CCC(CC)N(C(=O)n1oc(=O)n(-c2ccccc2C)c1=O)c1ccc(F)cc1	1
CC(C)N(C(=O)n1oc(=O)n(Cc2ccco2)c1=O)c1ccc(F)cc1	2
Cc1ccccc1-n1c(=O)on(C(=O)N(c2ccc(N(C)C)cc2)C(C)C)c1=O	1
Cc1nc(C)c(Cn2c(=O)on(C(=O)N(c3ccc(Cl)cc3)C(C)C)c2=O)s1	3

###

Recorded Plant response rating (0 to 10; 0 is no effect, 10 is complete control), Rape, one value per entry.
- Tested on: rape
- assay name: Test B pre/postemergence rape
- Assay type: in vivo, Brassica napus
- test conditions: Rate 250 g/ha; Postemergence
- Experimental: […] At the same time, these crop and weed species were also treated with postemergence applications of test chemicals formulated in the same manner. […] Treated plants and controls were maintained in a greenhouse for twelve to sixteen days, after which all species were compared to controls and visually evaluated. […]
endpoint label: Plant response rating (0 to 10; 0 is no effect, 10 is complete control), Rape

compound	tested system	reported measurement
CCCCn1c(=O)on(C(=O)N(c2ccc(F)cc2)C(C)C)c1=O	rape	4
Cc1ccccc1-n1c(=O)on(C(=O)N(c2ccc(Cl)cc2F)C(C)C)c1=O	rape	0
CC(C)N(C(=O)n1oc(=O)n(CC2CC2)c1=O)c1ccc(F)cc1	rape	0
CC(C)N(C(=O)n1oc(=O)n(C2CC2)c1=O)c1ccc(Cl)cc1	rape	2
CC(C)N(C(=O)n1oc(=O)n(C(C)C(=O)c2ccccc2)c1=O)c1ccc(F)cc1 (stereo not drawn)	rape	0
CC(C)N(C(=O)n1oc(=O)n(CCC(F)=C(F)F)c1=O)c1ccc(F)cc1	rape	6

###

- System: surinam grass
- assay name: Test B pre/postemergence surinam grass
- Assay type: in vivo, Brachiaria decumbens
- test conditions: Rate 125 g/ha; Preemergence; scale of 0 to 10 where 0 is no effect and 10 is complete control

molecule	B. signalgrass plant response rating
Cc1ccccc1-n1c(=O)on(C(=O)N(c2ccc(F)cc2)C(C)C2CC2)c1=O (stereo not shown) [Compound 240]	0
CC(C)N(C(=O)n1oc(=O)n(C2CC2)c1=O)c1ccc(Cl)cc1 [Compound 241]	2
C=CCn1c(=O)on(C(=O)N(c2ccc(F)cc2)C(C)C(=O)OCC)c1=O (stereo not shown) [Compound 279]	0
CCCCn1c(=O)on(C(=O)N(c2ccc(F)cc2)C(C)C)c1=O [Compound 221]	5

This collection of values is drawn from patent US6737383B1.
